Compiled notes: published IC50 values involving Aurora kinase A (Homo sapiens).

Below, each entry is followed by its recorded IC50 result.
In [3]: df
Out[3]:
                                   compound                          target  experimental_value
0  CC(C)(O)c1nc2cc(Nc3ncc(Cl)c(NC4CCN(c5ccc(C#N)nn5)CC4)n3)ccn2n1  Aurora kinase A (Homo sapiens)            > 300 nM
1  COc1cc2c(Oc3ccc(NC(=O)c4ccccc4)cc3)ccnc2cc1OCC[C@H](NC(C)=O)C(=O)O  Aurora kinase A (Homo sapiens)           < 2000 nM
2  Cn1nccc1-c1n[nH]c2cc(-c3ccc(NC(=O)Nc4cccc(F)c4)cc3)ccc12  Aurora kinase A (Homo sapiens)          > 12500 nM
3  O=C(O)[C@]1(Cc2cccc(Nc3nccs3)n2)CC[C@@H]([S+]([O-])c2cccc(Cl)c2Cl)CC1 (some centres unmarked)  Aurora kinase A (Homo sapiens)             0.19 nM
4  CC1(C)CN(c2ccc(-c3oc(-c4c(F)ccc5[nH]ccc45)nc3C(N)=O)cc2)CCN1  Aurora kinase A (Homo sapiens)             14.6 nM

Input: Can you look up the measured IC50 of O=C(c1cccc(C(F)(F)F)c1F)N1CCN(Cc2cncc(Nc3cc[nH]n3)n2)CC1 for me?
Output: 0.89 nM

Input: Similarly, CN1CCN(c2ccc(C(=O)Nc3n[nH]c4ccc(S(=O)(=O)c5ccccc5)cc34)cc2)CC1 ?
Output: 26 nM
